The measurements presented in this section are drawn from the supplement of paper PMC10567573.

B1: WDFY2 (parent)
chain: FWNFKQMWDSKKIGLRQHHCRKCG

- Variants of: B1
- assayProcedure: protein stability index of a GFP-peptide fusion (GPS, HEK-293T) (PSI 1-6); higher = more stable;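 note: lentivirally expressed fusions sorted by FACS into six bins by GFP to DsRed ratio, PSI derived from sequencing read proportions per bin multiplied by bin number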
- testContext: c terminus: a fixed tail appended
experimentalEndpoint: protein stability index

> print(dat)
    mutantname     experimentalendpoint  measurednumber
 1        C23Y  protein stability index            1.92
 2        C23H  protein stability index            2.24
 3        S10T  protein stability index            1.73
 4        H19P  protein stability index            2.17
 5         M7R  protein stability index            2.33
 6         K5T  protein stability index             1.5
 7        S10R  protein stability index            1.53
 8        K11C  protein stability index            2.65
 9        K22D  protein stability index            1.79
10        H19E  protein stability index            1.62
11         F1T  protein stability index            2.14
12        R21S  protein stability index            1.72
13        I13R  protein stability index            2.01
14        H18A  protein stability index            1.73
15        H18P  protein stability index            2.05
16        H18N  protein stability index             3.5
17         W2S  protein stability index            1.42
18        H18D  protein stability index            1.79
19        G24L  protein stability index            1.43
20         W2I  protein stability index            2.23
21        G24A  protein stability index            1.58
22         F1R  protein stability index            2.01
23        H18E  protein stability index            2.25
24         K5Y  protein stability index            1.24
25        R21V  protein stability index            1.21
26        K11Q  protein stability index            2.54
27         K5N  protein stability index            1.76
28         N3V  protein stability index            3.37
29        S10E  protein stability index            1.72
30         M7D  protein stability index            2.41
31         F1V  protein stability index            2.86
32        K12A  protein stability index            1.68
33        G24W  protein stability index            1.68
34        G14N  protein stability index            1.95
35        H19F  protein stability index            1.79
36         F4A  protein stability index            1.61
37         F1K  protein stability index            2.11
38         F1H  protein stability index            2.66
39        G14R  protein stability index             1.9
40         M7Y  protein stability index            2.34
41         M7H  protein stability index            2.48
42        R16S  protein stability index            2.15
43        L15H  protein stability index            1.71
44        G24C  protein stability index             2.4
45         Q6L  protein stability index            2.03
46        R16A  protein stability index            1.97
47        L15Y  protein stability index            1.93
48         N3R  protein stability index            1.42
49        I13H  protein stability index            1.81
50         Q6H  protein stability index            2.27
51        H19A  protein stability index            1.86
52        L15D  protein stability index            2.17
53        C20K  protein stability index            2.15
54        G24T  protein stability index             2.7
55         D9R  protein stability index            1.73
56         M7E  protein stability index            2.82
